This collection of values is drawn from patent US20180327746.

Target: T1, alpha-amylase (Homo sapiens, UniProt P0DUB6 P0DUB6:16-511)
T1 sequence: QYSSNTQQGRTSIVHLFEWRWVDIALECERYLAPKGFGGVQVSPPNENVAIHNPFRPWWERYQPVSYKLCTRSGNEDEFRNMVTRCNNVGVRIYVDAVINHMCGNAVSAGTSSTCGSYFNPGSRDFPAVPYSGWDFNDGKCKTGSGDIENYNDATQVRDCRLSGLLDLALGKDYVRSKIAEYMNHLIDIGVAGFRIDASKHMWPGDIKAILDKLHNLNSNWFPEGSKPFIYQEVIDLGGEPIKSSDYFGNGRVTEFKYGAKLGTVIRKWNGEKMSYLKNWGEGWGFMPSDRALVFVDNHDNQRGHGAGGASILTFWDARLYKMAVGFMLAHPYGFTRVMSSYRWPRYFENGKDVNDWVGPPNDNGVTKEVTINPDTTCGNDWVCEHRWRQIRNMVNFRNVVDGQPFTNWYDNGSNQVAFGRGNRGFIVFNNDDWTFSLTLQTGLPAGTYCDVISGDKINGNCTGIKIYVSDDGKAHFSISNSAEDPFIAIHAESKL
Test: SPR; SPR buffer with 1 mM MgCl2, pH 7.4; Chi2 29.33
Conditions: tags: none stated; commercial human alpha-amylase, Lee Biosolutions; label: 3' poly(dA)20 captured on biotin-poly(dT)20
Procedure: Biotinylated poly(dT) at 5 μmol/L was injected to a flow cell of the sensor chip using ultrapure water (DDW), and the binding was allowed to proceed until the signal intensity (RU: Resonance Unit) reached about 900 RU. The biotinylated poly(dT) was prepared by biotinylating the 5′ end of 20-mer deoxythymidine. […] With 0 seconds being the start of the injection, the mean value of signal intensities from 115 seconds to 125 seconds was determined. […]
OUTCOME MEASURE: Kd (nM)
Give the value in nM but do not write nM after it.

Query: So what's the measured Kd for this one? AML1243KR8m3s63Fw_s20 (ssDNA, KS9 modified T (formula 1) at underlined T, i.e. T 3' of the 5' primer region) DNA: TACCTTAACGCCGCCTATTGCGAGGTGTGGCTAGTCGTTATAGGTCCACCGAGTTGCACCAAAAAAAAAAAAAAAAAAAA
Result: 16.6
